Target: TTKA (Homo sapiens)
Construct: purchased in-house DSF kinase panel (SGC-style construct names; the trailing letter is the construct ID)
Sequence (P33981 519-808): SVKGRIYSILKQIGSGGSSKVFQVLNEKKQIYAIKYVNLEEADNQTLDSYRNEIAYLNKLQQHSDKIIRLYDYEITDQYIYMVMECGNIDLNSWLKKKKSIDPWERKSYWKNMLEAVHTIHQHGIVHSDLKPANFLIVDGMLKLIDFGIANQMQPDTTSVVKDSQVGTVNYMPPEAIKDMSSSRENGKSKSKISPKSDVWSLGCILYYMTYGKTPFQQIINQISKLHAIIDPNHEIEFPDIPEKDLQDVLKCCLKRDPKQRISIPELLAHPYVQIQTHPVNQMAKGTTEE
Experiment: DSF Tm panel
Assay type: binding
Conditions: 10 μM compound
readout_name: ΔTm at 10 µM (°C)

{"input_smiles": "O=C(NCc1ccc(Cl)cc1F)Nc1ccc2cc1OCCOCCNc1ccn3ncc-2c3n1", "target_system": "TTKA (Homo sapiens)", "unit_of_measure": "°C", "ΔTm at 10 µM": 1.8}
{"input_smiles": "Cc1ccc(F)cc1CNC(=O)Nc1ccc2cc1OCCOCCNc1ccn3ncc-2c3n1", "target_system": "TTKA (Homo sapiens)", "unit_of_measure": "°C", "ΔTm at 10 µM": 1.9}
{"input_smiles": "O=C(NCc1ccc(Cl)cc1)Nc1ccc2cc1OCCOCCNc1ccn3ncc-2c3n1", "target_system": "TTKA (Homo sapiens)", "unit_of_measure": "°C", "ΔTm at 10 µM": 1.4}
{"input_smiles": "COc1cccc(CNC(=O)Nc2ccc3cc2OCCOCCNc2ccn4ncc-3c4n2)c1", "target_system": "TTKA (Homo sapiens)", "unit_of_measure": "°C", "ΔTm at 10 µM": 1.6}

Reference for the values: paper PMC12621043
